- Tested System: β-secretase (BACE) (Homo sapiens)
- Construct: purchased Panvera
- Sequence (P56817 46-501): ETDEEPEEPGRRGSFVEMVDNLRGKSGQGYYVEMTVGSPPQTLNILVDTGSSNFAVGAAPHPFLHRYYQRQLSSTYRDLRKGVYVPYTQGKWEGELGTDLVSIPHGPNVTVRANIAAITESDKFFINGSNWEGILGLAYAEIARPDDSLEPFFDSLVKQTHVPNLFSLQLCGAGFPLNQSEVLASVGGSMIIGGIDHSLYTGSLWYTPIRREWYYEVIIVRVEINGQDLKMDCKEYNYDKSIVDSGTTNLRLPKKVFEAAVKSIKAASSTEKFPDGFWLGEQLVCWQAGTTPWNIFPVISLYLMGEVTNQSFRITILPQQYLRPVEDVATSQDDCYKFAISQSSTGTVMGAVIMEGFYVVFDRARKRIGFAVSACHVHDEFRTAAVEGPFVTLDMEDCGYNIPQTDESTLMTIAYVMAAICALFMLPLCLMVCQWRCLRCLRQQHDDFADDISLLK
- Test Summary: BACE FS1% Inhibition Assay (Example 160)
- Format: biochemical
- Measurement Parameters: 1 μM test compound; read-out: % Inhibition (FS)
Measure: inhibition at 1 µM (%)

{"Compound": "NC1=Nc2ccc(Oc3ccccc3)cc2CN1C(CNC(=O)C12CC3CC(CC(C3)C1)C2)C1CCCCC1 (stereo not drawn)", "Measure": "inhibition at 1 µM", "Quantitative Result": 103}
{"Compound": "CCC[C@H](CNC(=O)CCC(C)C)N1Cc2cc(Oc3ccccc3)ccc2N=C1N", "Measure": "inhibition at 1 µM", "Quantitative Result": 114}
{"Compound": "CCCC(CNC(=O)C12CC3CC(CC(C3)C1)C2)N1Cc2cc(Oc3ccccc3)ccc2N=C1N (stereo not drawn)", "Measure": "inhibition at 1 µM", "Quantitative Result": 113}
{"Compound": "CC(C)(C)OC(=O)NCC(C1CCCCC1)N1Cc2cc(Oc3ccccc3)ccc2N=C1N (stereo not drawn)", "Measure": "inhibition at 1 µM", "Quantitative Result": 105}
